The reported measurements were obtained from patent US10703755B2.

# Target or test system: human TLR7 (Homo sapiens (Human), UniProt Q9NYK1)
# Sequence (Q9NYK1 27-1049): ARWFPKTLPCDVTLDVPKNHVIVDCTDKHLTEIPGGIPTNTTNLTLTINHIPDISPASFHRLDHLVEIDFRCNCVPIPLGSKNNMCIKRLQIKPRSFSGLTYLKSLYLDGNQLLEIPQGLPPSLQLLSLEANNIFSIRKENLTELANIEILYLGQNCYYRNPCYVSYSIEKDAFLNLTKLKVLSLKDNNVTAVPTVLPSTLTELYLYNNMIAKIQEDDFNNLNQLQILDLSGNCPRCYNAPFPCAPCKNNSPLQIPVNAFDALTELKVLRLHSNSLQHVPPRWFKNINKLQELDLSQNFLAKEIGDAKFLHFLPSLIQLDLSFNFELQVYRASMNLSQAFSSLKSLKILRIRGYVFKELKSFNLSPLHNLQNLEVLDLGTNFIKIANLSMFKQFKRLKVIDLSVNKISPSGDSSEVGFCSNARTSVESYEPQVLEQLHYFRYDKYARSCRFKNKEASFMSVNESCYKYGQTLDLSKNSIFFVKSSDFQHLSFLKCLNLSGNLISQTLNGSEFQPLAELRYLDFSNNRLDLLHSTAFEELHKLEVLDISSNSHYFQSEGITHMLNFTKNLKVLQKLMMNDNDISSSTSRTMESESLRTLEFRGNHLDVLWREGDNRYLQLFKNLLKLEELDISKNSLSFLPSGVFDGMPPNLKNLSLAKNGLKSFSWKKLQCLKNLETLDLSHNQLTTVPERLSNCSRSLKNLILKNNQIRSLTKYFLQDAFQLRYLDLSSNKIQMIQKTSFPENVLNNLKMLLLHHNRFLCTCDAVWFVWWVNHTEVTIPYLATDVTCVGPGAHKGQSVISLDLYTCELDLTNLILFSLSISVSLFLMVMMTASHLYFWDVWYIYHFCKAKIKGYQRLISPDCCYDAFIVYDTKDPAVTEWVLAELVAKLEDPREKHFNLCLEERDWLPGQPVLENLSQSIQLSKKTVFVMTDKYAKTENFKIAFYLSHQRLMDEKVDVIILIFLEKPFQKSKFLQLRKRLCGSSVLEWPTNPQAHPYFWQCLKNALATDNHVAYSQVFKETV
# Procedure summary: Test for evaluating the inhibition of the activation of human TLR7 (SEAP reporter, TLR7/NF-κB/SEAPorter HEK293 cell)
# Run conditions: R-848 200 nmol/L, SEAP reporter
Measure name: IC50 (nM)
Quick reminder: number only, in nM, skip the unit.

| Molecule | Experimental value |
| --- | --- |
| CCOc1nc(C)c2nc(-c3cncnc3)n(Cc3ccc(CN4C[C@@H]5C[C@H]4CN5C)cc3F)c2n1 | 25 |
| COc1nc(C)c2nc(-c3cncnc3)n(Cc3ccc([C@@H]4CN5CCC4CC5)cc3F)c2n1 | 98 |
| CCOc1nc(N)c2nc(-c3cncc(C(F)F)c3)n(Cc3ccccc3)c2n1 | 2800 |

Response field IC50 (human TLR7 (Homo sapiens (Human), UniProt Q9NYK1)) for item CCCCNc1nc(N)c2nc(-c3cncc(OC)c3)n(Cc3ccccc3)c2n1 : 18700

Entry COc1nc(C)c2nc(-c3cncc(F)c3)n(Cc3ccc(OCCN(C)C)cc3F)c2n1 , tested on human TLR7 (Homo sapiens (Human), UniProt Q9NYK1), has a reported IC50 of 139

# value of IC50, human TLR7 (Homo sapiens (Human), UniProt Q9NYK1), item CCCOc1nc(C)c2nc(-c3cncc(F)c3)n(Cc3ccc(O[C@@H]4CN5CCC4CC5)nc3)c2n1 = 200

Kindly note: human TLR7 (Homo sapiens (Human), UniProt Q9NYK1), CCOc1nc(N)c2nc(-c3cncc(F)c3)n(Cc3ccc(CN4C[C@@H]5C[C@H]4CN5CC)cc3)c2n1 , IC50 value reported: 19

// returns IC50 for COc1nc(C)c2nc(-c3cncc(F)c3)n(Cc3ccc(C4CN5CCC4CC5)cc3F)c2n1 (single isomer, unassigned) [Example 392] with human TLR7 (Homo sapiens (Human), UniProt Q9NYK1); value = 13

Sample CCOc1nc(C)c2nc(-c3cncc(F)c3)n(Cc3ccc(C4=CN5CCC4CC5)cc3OCC)c2n1 , system: human TLR7 (Homo sapiens (Human), UniProt Q9NYK1). Its IC50 is 463

Record CCOc1nc(N)c2nc(-c3cncc(F)c3)n(Cc3cc(OC)ccc3F)c2n1 / human TLR7 (Homo sapiens (Human), UniProt Q9NYK1), IC50 recorded as 2000

Noted IC50 for COc1nc(C)c2nc(-c3cncc(F)c3)n(Cc3ccc(C4CCN(C)CC4)cc3F)c2n1 , tested on human TLR7 (Homo sapiens (Human), UniProt Q9NYK1): 8

The reported human TLR7 (Homo sapiens (Human), UniProt Q9NYK1) IC50 of CCOc1nc(C)c2nc(-c3cncc(F)c3)n(Cc3ccc(CN4CCCCC4)cc3)c2n1 is 63

Entry COc1nc(C)c2nc(-c3cccnn3)n(Cc3ccc(OC4CN5CCC4CC5)cc3F)c2n1 (stereo not drawn) under human TLR7 (Homo sapiens (Human), UniProt Q9NYK1) had IC50 of 176

----------
# Target or test system: human TLR7 (Homo sapiens (Human), UniProt Q9NYK1)
# Procedure summary: Test for evaluating the inhibition of the activation of human TLR7 (SEAP reporter, TLR7/NF-κB/SEAPorter HEK293 cell)
# Run conditions: R-848 200 nmol/L, SEAP reporter
The molecules listed here are annotated with their IC50.
Note: unit nM is implicit; provide only the numeric part.

| Molecule | IC50 / nM |
| --- | --- |
| CCCCOc1nc(N)c2nc(-c3cncc(CO)c3)n(Cc3ccccc3)c2n1 | 22500 |
| COc1nc(C)c2nc(-c3cncc(F)c3)n(Cc3ccc(C4CN5CCC4CC5)c(F)c3)c2n1 (centres unmarked) | 7 |
| CCCCOc1nc(N)c2nc(-c3cncc(Cl)c3)n(Cc3ccccc3)c2n1 | 1100 |
| COc1nc(C)c2nc(-c3cnc(C)nc3)n(Cc3ccc(C4CN5CCC4CC5)cc3F)c2n1 (centres unmarked) | 92 |
| CCOc1nc(C)c2nc(-c3cncc(F)c3)n(Cc3ccc(C4CN5CCC4CC5)nc3OC)c2n1 (centres unmarked) | 23 |

Summary line: CCOc1nc(C)c2nc(-c3cncc(F)c3)n(Cc3cnn(CCCN4CCOCC4)c3)c2n1 , human TLR7 (Homo sapiens (Human), UniProt Q9NYK1), reported IC50 = 100

Query CCOc1nc(C)c2nc(-c3cncc(F)c3)n(Cc3ccc(C4=CN5CCC4CC5)nc3C(F)(F)F)c2n1 on human TLR7 (Homo sapiens (Human), UniProt Q9NYK1); IC50 returned: 1720

Query COc1nc(C)c2nc(-c3cnc(C)nc3)n(Cc3ccc(OC4CN5CCC4CC5)cc3F)c2n1 (centres unmarked) on human TLR7 (Homo sapiens (Human), UniProt Q9NYK1); IC50 returned: 120
